FYI, the data here is from the Human Domainome abundance scans (Beltran et al. 2025).

Recorded abundance fitness by entry
B1: Syntaxin-binding protein 4, residues 493 to 538; numbered along this chain, Q6ZWJ1 (parent)
chain: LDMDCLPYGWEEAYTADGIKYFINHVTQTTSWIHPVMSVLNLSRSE

Variants of: B1
Assay: abundance fitness (aPCA) (normalised: wild type 0, dead -1); higher = more abundant; growth selection in yeast, the domain comes from the species named
Conditions: Homo sapiens
Reply: number alone, nothing else.

MUTANT NAME	ENDPOINT RESULT
P7L	-0.711

INPUT: Quick one: abundance fitness for `I33N` ?
OUTPUT: -0.243

INPUT: What about `T27D` ?
OUTPUT: -0.127

INPUT: What about `S38N` ?
OUTPUT: -0.046

INPUT: What about `I23L` ?
OUTPUT: -0.57

INPUT: What about `V36W` ?
OUTPUT: -0.424

INPUT: What about `F22D` ?
OUTPUT: -0.794

INPUT: What about `T15I` ?
OUTPUT: -0.772

INPUT: What about `K20C` ?
OUTPUT: -0.753

INPUT: What about `E12S` ?
OUTPUT: -0.619

INPUT: What about `T29K` ?
OUTPUT: -0.759

INPUT: What about `Y8H` ?
OUTPUT: -0.094

INPUT: What about `T29S` ?
OUTPUT: -0.475

INPUT: What about `P35W` ?
OUTPUT: -0.775

INPUT: What about `M37T` ?
OUTPUT: 0.146

INPUT: What about `E12L` ?
OUTPUT: -0.804

INPUT: What about `I19D` ?
OUTPUT: 0.771

INPUT: What about `A16Y` ?
OUTPUT: -0.606

INPUT: What about `M37K` ?
OUTPUT: 0.38

INPUT: What about `I33W` ?
OUTPUT: -0.743

INPUT: What about `T29M` ?
OUTPUT: -0.789

INPUT: What about `L6S` ?
OUTPUT: -0.816
